Origin of measurements: the supplement of paper PMC11208160

Test: recombinant barcode read abundance after kanamycin selection (control-corrected) (log10(CPM+1)); higher = more efficient recombination; sequences stand for … in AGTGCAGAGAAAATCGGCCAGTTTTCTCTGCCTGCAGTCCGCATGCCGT…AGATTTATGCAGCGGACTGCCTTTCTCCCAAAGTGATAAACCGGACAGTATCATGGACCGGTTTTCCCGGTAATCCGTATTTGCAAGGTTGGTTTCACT; site = the 11-nt target;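 also: IS621 recombinase and bridge RNA in Escherichia coli cells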
Kindly state recombinant barcode read abundance (log10) for each of the entries shown.
Answers are plain numbers.

1. TGGACTTCTTGGGTTCTAACCTGTTGCTT (site TGGAATTCTAA) = 0.0677
2. GTAACTACTTGGGTTCTAACCTGTTGCAC (site CTAATTACTGT) = 0.0302
3. CTACTAGCTTGGGTTCTAACCTGTTGCAA (site CTACTAGCTTT) = 1.25
4. TCGGTGACTTGGGTTCTAACCTGTTGCCT (site ACGGTGACTAG) = 0.658
5. ACCCTAGCTTGGGTTCTAACCTGTTGCCA (site ATCGTAGCTTG) = 0.0661

// each sequence listed below needs its recombinant barcode read abundance (log10)
1. GGGTCCTCTTGGGTTCTAACCTGTTGCCG (site GGGTCCTCTCG)
2. GTTTGCTCTTGGGTTCTAACCTGTTGCCT (site GTTTGCTCTAG)
3. TGTCTGCCTTGGGTTCTAACCTGTTGCCT (site CGTCTGCCTAG)
4. CTAAAGTCTTGGGTTCTAACCTGTTGCCA (site CTAAAGTCTTG)
5. GAAGCGCCTTGGGTTCTAACCTGTTGCCT (site GAAGGGCCTAG)

**Result**
2.01
0.635
0.122
0.399
0.0832
